Biological target: mGluR5 (Homo sapiens)
Test: mGluR5 PAM EC50 (positive allosteric modulator potency)
pEC50: −log10 of the molar value.
Reported pEC50 values for a set of compounds
EXPERIMENTAL_READOUT: pEC50

compound=CC1(C)CCc2nc3cc(C#Cc4ncc(F)cn4)ccc3c(=O)n2C1 reported_result="7.00 to 7.52"
compound="COC1(C)CCc2nc3cc(C#Cc4ccccn4)ccc3c(=O)n2C1 (single isomer, unassigned) [Example 2.8a]" reported_result="6.52 to 7.00"
compound="CC1(C)Cn2c(nc3cc(C#Cc4ccccn4)ccc3c2=O)C1F (single isomer, unassigned) [Example 1.11b]" reported_result="7.52 to 8.00"
compound="O=c1c2ccc(C#Cc3ccccn3)cc2nc2n1CC(C(F)(F)F)C2 (single isomer, unassigned) [Example 1.8a]" reported_result="7.52 to 8.00"
compound="O=c1c2ccc(C#Cc3ccccn3)cc2nc2n1CCN1CCC2C1 (stereo not shown)" reported_result="6.52 to 7.00"
compound="O=c1c2ncc(C#Cc3ccccn3)cc2nc2n1CCCC(C(F)(F)F)C2 (stereo not shown)" reported_result="7.00 to 7.52"
compound="CC1Cn2c(nc3cc(C#Cc4ccccn4)ccc3c2=O)CN1C (single isomer, unassigned)" reported_result="7.00 to 7.52"
compound="O=c1c2ccc(C#Cc3ccccn3)cc2nc2n1CCC1COCC1C2 (single isomer, unassigned) [Example 3.2f]" reported_result="> 8.00"
compound="CC1(F)CCc2nc3cc(C#Cc4ccccn4)cnc3c(=O)n2CC1 (single isomer, unassigned) [Example 3.10b]" reported_result="7.00 to 7.52"
compound="CCC1CCc2nc3cc(C#Cc4ccccn4)ccc3c(=O)n2CC1 (single isomer, unassigned) [Example 3.13b]" reported_result="7.52 to 8.00"
compound="O=c1c2ccc(C#Cc3ccccn3)cc2nc2n1CC1COCC1CC2 (single isomer, unassigned)" reported_result="7.00 to 7.52"
compound="CC1(C)Cn2c(nc3cc(C#Cc4ccccn4)cnc3c2=O)C1F (stereo not shown)" reported_result="6.52 to 7.00"
compound=O=c1c2ccc(C#Cc3ccccn3)cc2nc2n1CC1(CCC1)C2 reported_result="7.52 to 8.00"
compound=CC1(C)CCc2nc3cc(COc4ccccn4)ccc3c(=O)n2C1 reported_result="6.52 to 7.00"
compound=COc1cccc(C#Cc2ccc3c(=O)n4c(nc3c2)CCC(C)(C)C4)n1 reported_result="7.00 to 7.52"
compound=CC1(C)CCc2nc3cc(C#Cc4ccc(F)nc4)ccc3c(=O)n2C1 reported_result="> 8.00"

----------
Molecular target: mGluR5 (Homo sapiens, UniProt P41594)
Sequence (P41594 21-1212): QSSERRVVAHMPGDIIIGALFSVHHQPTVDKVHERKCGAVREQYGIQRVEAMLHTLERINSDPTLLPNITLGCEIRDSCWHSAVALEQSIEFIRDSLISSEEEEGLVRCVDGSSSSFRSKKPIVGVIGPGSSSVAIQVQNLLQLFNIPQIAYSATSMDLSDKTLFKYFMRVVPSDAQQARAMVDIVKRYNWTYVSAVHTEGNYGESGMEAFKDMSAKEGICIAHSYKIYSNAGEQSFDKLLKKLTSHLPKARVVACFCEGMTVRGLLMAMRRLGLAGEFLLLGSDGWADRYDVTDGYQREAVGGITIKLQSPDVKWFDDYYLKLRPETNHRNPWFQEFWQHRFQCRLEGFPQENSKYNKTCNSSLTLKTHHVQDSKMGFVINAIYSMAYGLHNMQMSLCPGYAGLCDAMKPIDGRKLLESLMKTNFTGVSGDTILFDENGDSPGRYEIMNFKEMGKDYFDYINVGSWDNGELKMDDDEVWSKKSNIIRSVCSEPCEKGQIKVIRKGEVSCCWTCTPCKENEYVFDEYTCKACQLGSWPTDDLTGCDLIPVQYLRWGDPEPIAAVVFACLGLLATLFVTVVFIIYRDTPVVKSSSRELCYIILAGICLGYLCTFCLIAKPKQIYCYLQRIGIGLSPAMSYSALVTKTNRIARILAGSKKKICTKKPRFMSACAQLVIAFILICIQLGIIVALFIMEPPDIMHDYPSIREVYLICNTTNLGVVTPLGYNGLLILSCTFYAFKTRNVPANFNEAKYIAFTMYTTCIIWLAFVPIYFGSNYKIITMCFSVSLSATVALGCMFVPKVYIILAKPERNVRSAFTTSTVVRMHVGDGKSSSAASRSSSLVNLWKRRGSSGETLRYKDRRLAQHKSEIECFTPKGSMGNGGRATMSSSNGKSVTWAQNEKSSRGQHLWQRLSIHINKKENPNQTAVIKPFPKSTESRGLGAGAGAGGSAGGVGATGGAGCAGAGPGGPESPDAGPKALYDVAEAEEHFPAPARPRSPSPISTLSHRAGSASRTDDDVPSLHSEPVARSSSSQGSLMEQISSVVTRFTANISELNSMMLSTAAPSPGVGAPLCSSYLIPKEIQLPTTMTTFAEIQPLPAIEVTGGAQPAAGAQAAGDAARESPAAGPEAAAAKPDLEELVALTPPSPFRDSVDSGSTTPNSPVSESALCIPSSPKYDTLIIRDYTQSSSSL
Assay: mGluR5 PAM EC50 (positive allosteric modulator potency)
pEC50: −log10 of the molar value.
Reported pEC50 values for a set of compounds
EXPERIMENTAL_READOUT: pEC50

compound=CC1(C)CCc2nc3cc(C#Cc4cccnc4F)ccc3c(=O)n2C1 experimental_readout=pEC50 reported_result="> 8.00"
compound="O=c1c2ccc(C#Cc3ccccn3)cc2nc2n1CCC1(CCCO1)CC2 (single isomer, unassigned) [Example 3.3a]" experimental_readout=pEC50 reported_result="7.00 to 7.52"
compound="CC1CCc2nc3c(F)c(C#Cc4ccccn4)ccc3c(=O)n2CC1 (single isomer, unassigned) [Example 3.12a]" experimental_readout=pEC50 reported_result="> 8.00"
compound=CC1(C)CCc2nc3cc(C#Cc4ccc(F)cc4)ccc3c(=O)n2C1 experimental_readout=pEC50 reported_result="7.52 to 8.00"
